Data origin: patent US20200024330A1

molecular target: HIV-1 JR-CSF Env S306A (HIV-1 JR-CSF) (UniProt P20871); test: cell-based or functional assay
measuredParameter: Fold IC50 increase relative to wild-type (fold)

>  <binder>
PGT-128 (antibody, V domains shown) VH: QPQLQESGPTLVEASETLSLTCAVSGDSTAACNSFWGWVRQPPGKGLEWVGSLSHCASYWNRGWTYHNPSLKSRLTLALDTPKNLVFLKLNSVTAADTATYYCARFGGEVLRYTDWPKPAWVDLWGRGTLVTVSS VL: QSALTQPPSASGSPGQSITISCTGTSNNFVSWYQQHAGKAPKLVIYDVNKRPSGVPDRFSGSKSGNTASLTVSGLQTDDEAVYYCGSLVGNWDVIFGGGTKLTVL

>  <result>
1.1

$$$$
>  <binder>
PGT-123 (antibody, V domains shown) VH: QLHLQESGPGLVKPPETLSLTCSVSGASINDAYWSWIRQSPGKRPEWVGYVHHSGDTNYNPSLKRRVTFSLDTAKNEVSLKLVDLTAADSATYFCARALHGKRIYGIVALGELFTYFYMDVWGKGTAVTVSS VL: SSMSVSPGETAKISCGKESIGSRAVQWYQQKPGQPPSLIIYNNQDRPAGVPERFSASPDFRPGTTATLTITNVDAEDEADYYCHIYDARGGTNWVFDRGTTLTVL

>  <result>
0.5

$$$$
>  <binder>
PGT-125 (antibody, V domains shown) VH: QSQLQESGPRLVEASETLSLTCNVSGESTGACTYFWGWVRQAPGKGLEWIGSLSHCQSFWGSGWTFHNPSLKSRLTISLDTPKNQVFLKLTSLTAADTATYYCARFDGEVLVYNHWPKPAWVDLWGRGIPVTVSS VL: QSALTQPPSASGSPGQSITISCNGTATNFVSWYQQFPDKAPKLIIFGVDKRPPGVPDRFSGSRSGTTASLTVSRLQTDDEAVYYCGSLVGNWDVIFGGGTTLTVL

>  <result>
1.2

$$$$
